All figures here come from PubChem BioAssay (NCI).

Tested on: SW-620 colon
Test: NCI-60 one-dose screen, 48 h
Conditions: 10 µM unless noted
About 83,000 compounds went through this panel and 20% of them were active in at least one assay; those are over-represented in the sample as a whole. Calls of active or inactive are those of the source. The calls were made as follows: active = growth percent below 10; inactive = the rest.
Could you please pick one outcome from this set? active, inactive

Clc1ccc2c(NCCCn3cnc4c(N5CCCC5)nc(Cl)nc43)ccnc2c1    inactive
COc1cc2c(cc1-c1c(C)noc1C)ncc1nc(C3CCOCC3)n(C3CCC(OC(F)F)CC3)c12 (stereo not given)    inactive
COc1c(O[C@@H]2OC(CO)[C@H](O)[C@H](O)C2O)cc2oc3cc(O)c(CC=C(C)C)c(O)c3c(=O)c2c1CC=C(C)C (stereo not given in full)    inactive

[Q] Look up the recorded call for `O=C(O)/C=C\C(=O)Nc1ccc2c(c1)Cc1cc(F)ccc1-2` in this test.
[A] inactive

[Q] Look up the recorded call for `O=C(COc1ccc(/C=C2\Oc3ccccc3C2=O)cc1)Nc1nccs1` in this test.
[A] inactive

[Q] Look up the recorded call for `N#C/C(Sc1nc2sc3c(c2c(=O)n1Cc1ccccc1)CCCC3)=C1/SC=C(c2ccc(Cl)cc2)N1c1ccccc1` in this test.
[A] inactive

[Q] Look up the recorded call for CCOC(=O)CC1C(CNC(=O)NC)OC(n2cnc3c(NC(=O)Nc4ccccc4)ncnc32)C1O[Si](C)(C)C(C)(C)C (stereo not given) in this test.
[A] inactive

====

System: HCC-2998 colon
Assay: NCI-60 one-dose screen, 48 h (100 = growth as untreated, 0 = no growth, -100 = all killed)
Conditions: 10 µM unless noted
About 83,000 compounds went through this panel and 20% of them were active in at least one assay; those are over-represented in the sample as a whole.
Label MET when growth is strictly below 40%; at or above that, label NOT MET.

COC(=O)[C@@H](Cc1c[nH]c2ccccc12)NC[C@@H](O)CN1C(=O)/C(=C\c2cc(OC)c(OC)c(OC)c2)c2ccccc21    NOT MET
CSc1nn2c(-c3cc4cc(Br)ccc4oc3=O)ccnc2c1C#N    NOT MET
CC1=C2[C@@H](CC1)[C@]1(C)O[C@@](C(C)C)(C[C@H]1OC(=O)CO)[C@H]2OC(=O)CCCc1ccccc1    NOT MET
O=[N+]([O-])c1ccc(N/N=C\c2cc(Cl)ccc2O)nc1    NOT MET

[Q] Is growth of `O=C1/C(=C/c2cccc(Br)c2)COc2ccc(O)c(O)c21` strictly below 40%?
[A] MET

[Q] Is growth of `Cc1cc2c(c(C)n1)CN(C(=O)Nc1nc(-c3cncs3)ccc1N)C2` strictly below 40%?
[A] NOT MET

[Q] Is growth of COC(CCP(=O)(c1ccccc1)c1ccccc1)(C(=O)c1ccccc1)c1ccccc1 (stereo unspecified) strictly below 40%?
[A] NOT MET

[Q] Is growth of `CC1(C)CCC[C@]23C(=O)O[C@](O)(C(=O)C4=C[C@@](C)(/C=C/CCCc5ccc6ccc7cccc8ccc5c6c78)CC[C@@]42O)[C@@H]13` strictly below 40%?
[A] MET

[Q] Is growth of CCC(C)C(N)C(=O)NC(CC(C)C)C(=O)N1CCCC1C(=O)NC(Cc1c[nH]c2ccccc12)C(=O)NC(CCCCN)C(=O)NC(Cc1c[nH]c2ccccc12)C(=O)N1CCCC1C(=O)NC(Cc1c[nH]c2ccccc12)C(=O)NC(Cc1c[nH]c2ccccc12)C(=O)N1CCCC1C(=O)NC(Cc1c[nH]c2ccccc12)C(=O)NC(CCCNC(=N)N)C(=O)NC(CCCNC(=N)N)C(N)=O (stereo unspecified) strictly below 40%?
[A] NOT MET

[Q] Is growth of CCCC1Cc2cc(-n3nc(C)c4c3CC(C)(C)CC4=O)cc(NC3CCC(O)CC3)c2C(=O)N1 (stereo unspecified) strictly below 40%?
[A] MET

[Q] Is growth of CCCN1C(=O)N(CCC)C2C1NC(=S)N2/N=C/C=C/c1ccccc1OC (stereo unspecified) strictly below 40%?
[A] MET
